assay: Agonist activity at STING in human wild-type THP1-Dual cells co-expressing ISRE reporter assessed as IRF-mediated immune response incubated for 24 hrs by QUANTI Luc based microplate reader method
property: pEC50
Give bare numbers, as −log10 of the molar value.

Some molecules with known pEC50 results, for comparison:
>>> df
                            molecule_smiles  recorded_measurement
0  CCn1nc(C)cc1C(=O)Nc1nc2cc(C(N)=O)cc(OC)c2n1C/C=C/CNC(=O)OC(C)(C)C                  5.34
1  CCn1nc(C)cc1C(=O)Nc1nc2cc(C(N)=O)ccc2n1CCCCCNC(=O)OC(C)(C)C                  5.77
2  CCn1nc(C)cc1C(=O)Nc1nc2cc(C(N)=O)ccc2n1CCCNC(=O)OC(C)(C)C                  4.31
3  CCn1nc(C)cc1C(=O)/N=c1\[nH]c2cc(C(N)=O)ccc2n1CCCCn1/c(=N/C(=O)c2cc(C)nn2CC)[nH]c2cc(C(N)=O)ccc21                  5.91

Prompt: Tell us which pEC50 value is on record for `CCn1nc(C)cc1C(=O)NCCCOc1cc(C(N)=O)cc2nc(NC(=O)c3cc(C)nn3CC)n(C)c12`
Completion: 5.21

====

assay: Agonist activity at STING in human wild-type THP1-Dual cells co-expressing ISRE reporter assessed as IRF-mediated immune response incubated for 24 hrs by QUANTI Luc based microplate reader method
Give EC50 for every item shown.
Numbers only, in µM.

>>> print(df.to_string())
                            molecule_smiles  unit_info  recorded_measurement
0  CCn1nc(C)cc1C(=O)Nc1nc2cc(C(N)=O)cc(OCCCNC(=O)OC(C)(C)C)c2n1C         µM                  1.66

Field: EC50. Fill in for each record below.
1. CCn1nc(C)cc1C(=O)NCCCCn1c(NC(=O)c2cc(C)nn2CC)nc2cc(C(N)=O)ccc21
2. Cn1cc(C(=O)Nc2nc3cc(C(N)=O)ccc3n2CCCCn2c(NC(=O)c3cn(C)nc3C(F)(F)F)nc3cc(C(N)=O)ccc32)c(C(F)(F)F)n1
3. CCn1nc(C)cc1C(=O)Nc1nc2cc(C(N)=O)ccc2n1CCCCNC(=O)OC(C)(C)C
4. CCn1nc(C)cc1C(=O)Nc1nc2cc(C(N)=O)ccc2n1CCCCNC(=O)c1ccccc1
5. CCn1nc(C)cc1C(=O)Nc1nc2cc(C(N)=O)ccc2n1CCCCNC(=O)c1cc(C)nn1C

Completion:
[9.12, 17.6, 6.55, 28.6, 30.1]

Field: EC50. Fill in for each record below.
1. CCn1nc(C)cc1C(=O)NCCCOc1cc(C(N)=O)cc2nc(NC(=O)c3cc(C)nn3CC)n(C/C=C/Cn3c(NC(=O)c4cc(C)nn4CC)nc4cc(C(N)=O)cc(OC)c43)c12
2. CCn1nc(C)cc1C(=O)NCCCn1c(NC(=O)c2cc(C)nn2CC)nc2cc(C(N)=O)ccc21

Completion:
["4e-06", 39.1]
